# study.system: human GCG receptor (human, UniProt P47871 26-477)
# Sequence (P47871 26-477): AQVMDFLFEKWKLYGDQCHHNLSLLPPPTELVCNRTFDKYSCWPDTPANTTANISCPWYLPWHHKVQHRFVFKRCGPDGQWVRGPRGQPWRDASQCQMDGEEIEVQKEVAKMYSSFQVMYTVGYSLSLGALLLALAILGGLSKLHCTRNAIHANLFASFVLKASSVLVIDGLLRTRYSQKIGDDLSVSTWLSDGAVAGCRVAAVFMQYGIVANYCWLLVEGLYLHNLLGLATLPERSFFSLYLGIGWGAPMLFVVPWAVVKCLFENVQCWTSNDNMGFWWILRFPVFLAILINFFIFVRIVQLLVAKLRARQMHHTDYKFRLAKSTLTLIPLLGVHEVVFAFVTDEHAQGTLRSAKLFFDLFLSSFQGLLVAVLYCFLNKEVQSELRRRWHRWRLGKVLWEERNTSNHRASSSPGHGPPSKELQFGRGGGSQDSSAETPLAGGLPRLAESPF
# test.method.notes: cell-based or functional assay
Bridges are numbered along the chain shown (N, C = ends). Where no end group is shown, it is not given here. [ ]: non-standard residue; d: D form. The star is where a group is joined. Acetyl(2-(4-imidazolyl)) = O=C(Cc1c[nH]cn1)*; Aib = CC(C)(N)C(=O)O
metric: In vitro activity (%) vs. Glucagon, cAMP EC50

Given item [Acetyl(2-(4-imidazolyl))][Aib]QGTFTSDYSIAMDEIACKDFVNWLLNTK (bridge 16-20; ends not checked) [triple agonist of SEQ ID NO: 61] , the value recorded as its In vitro activity (%) vs. Glucagon, cAMP EC50 is < 0.1%

Given item [Acetyl(2-(4-imidazolyl))][Aib]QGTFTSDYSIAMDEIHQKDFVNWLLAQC (bridge 16-20) [triple agonist of SEQ ID NO: 85] , the value recorded as its In vitro activity (%) vs. Glucagon, cAMP EC50 is < 0.1%

Given item {Acetyl(2-(4-imidazolyl))}-[Aib]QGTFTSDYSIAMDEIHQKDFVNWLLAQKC (bridge 15-19) [triple agonist of SEQ ID NO: 92] , the value recorded as its In vitro activity (%) vs. Glucagon, cAMP EC50 is < 0.1%
